- measurement_description: Oral gavage pharmacokinetics in rats, plasma oxymorphone by LC-MS/MS
- condition_info: male, Sprague Dawley, rat, plasma, oral, 3.54 mg/kg, Plasma oxymorphone, Mean, 3.54 mg/kg Oxymorphone HCl oral, 3 h
Structures can show the parent of a compound that is named as a salt.
quantity_name: concentration at 3 h

// field: concentration at 3 h; key: CN1CC[C@]23c4c5ccc(O)c4O[C@H]2C(=O)CC[C@@]3(O)[C@H]1C5 [Oxymorphone HCl, oxymorphone hydrochloride] ; value = 1.16 ng/mL

---

- measurement_description: Oral gavage pharmacokinetics in rats, plasma oxymorphone by LC-MS/MS
- condition_info: male, Sprague Dawley, rat, plasma, oral, 3.54 mg/kg, Plasma oxymorphone, Mean, 3.54 mg/kg Oxymorphone HCl oral, 1 h
Structures can show the parent of a compound that is named as a salt.
quantity_name: concentration at 1 h (ng/mL)
One number for each entry, in ng/mL.

// field: concentration at 1 h; key: CN1CC[C@]23c4c5ccc(O)c4O[C@H]2C(=O)CC[C@@]3(O)[C@H]1C5 [Oxymorphone HCl, oxymorphone hydrochloride] ; value = 2.16

---

- measurement_description: Oral gavage pharmacokinetics in rats, plasma oxymorphone by LC-MS/MS
- condition_info: male, Sprague Dawley, rat, plasma, oral, 1.77 mg/kg, Plasma oxymorphone, individual rats, 1.77 mg/kg Oxymorphone HCl oral, 3 h
Structures can show the parent of a compound that is named as a salt.
quantity_name: concentration at 3 h (ng/mL)
Answers are plain numbers, in ng/mL.

// field: concentration at 3 h; key: CN1CC[C@]23c4c5ccc(O)c4O[C@H]2C(=O)CC[C@@]3(O)[C@H]1C5 [Oxymorphone HCl, oxymorphone hydrochloride] ; value = 0.457

---

- measurement_description: Oral gavage pharmacokinetics in rats, plasma oxymorphone by LC-MS/MS
- condition_info: male, Sprague Dawley, rat, plasma, oral, 1.77 mg/kg, Plasma oxymorphone, Mean, 1.77 mg/kg Oxymorphone HCl oral, 3 h
Counter-ions that a name gives are not always drawn.
quantity_name: concentration at 3 h
Remember to quote the unit after the number.

// field: concentration at 3 h; key: CN1CC[C@]23c4c5ccc(O)c4O[C@H]2C(=O)CC[C@@]3(O)[C@H]1C5 [Oxymorphone HCl, oxymorphone hydrochloride] ; value = 0.378 ng/mL

---

- measurement_description: Oral gavage pharmacokinetics in rats, plasma oxymorphone by LC-MS/MS
- condition_info: male, Sprague Dawley, rat, plasma, oral, 1.77 mg/kg, Plasma oxymorphone, Mean, 1.77 mg/kg Oxymorphone HCl oral, 0.25 h
Counter-ions that a name gives are not always drawn.
quantity_name: concentration at 0.25 h (ng/mL)
Give bare numbers, in ng/mL.

// field: concentration at 0.25 h; key: CN1CC[C@]23c4c5ccc(O)c4O[C@H]2C(=O)CC[C@@]3(O)[C@H]1C5 [Oxymorphone HCl, oxymorphone hydrochloride] ; value = 0.795

---

- measurement_description: Oral gavage pharmacokinetics in rats, plasma oxymorphone by LC-MS/MS
- condition_info: male, Sprague Dawley, rat, plasma, oral, 3.54 mg/kg, Plasma oxymorphone, individual rats, 3.54 mg/kg Oxymorphone HCl oral, 2 h
Where a name gives a salt, the structure may show the parent alone.
quantity_name: concentration at 2 h (ng/mL)
Numbers only, in ng/mL.

// field: concentration at 2 h; key: CN1CC[C@]23c4c5ccc(O)c4O[C@H]2C(=O)CC[C@@]3(O)[C@H]1C5 [Oxymorphone HCl, oxymorphone hydrochloride] ; value = 1.27

---

- measurement_description: Oral gavage pharmacokinetics in rats, plasma oxymorphone by LC-MS/MS
- condition_info: male, Sprague Dawley, rat, plasma, oral, 1.77 mg/kg, Plasma oxymorphone, Mean, 1.77 mg/kg Oxymorphone HCl oral, 0.5 h
Structures can show the parent of a compound that is named as a salt.
quantity_name: concentration at 0.5 h (ng/mL)
Numbers only, in ng/mL.

// field: concentration at 0.5 h; key: CN1CC[C@]23c4c5ccc(O)c4O[C@H]2C(=O)CC[C@@]3(O)[C@H]1C5 [Oxymorphone HCl, oxymorphone hydrochloride] ; value = 0.689

---

- measurement_description: Oral gavage pharmacokinetics in rats, plasma oxymorphone by LC-MS/MS
- condition_info: male, Sprague Dawley, rat, plasma, oral, 1.77 mg/kg, Plasma oxymorphone, Mean, 1.77 mg/kg Oxymorphone HCl oral, 1 h
Structures can show the parent of a compound that is named as a salt.
quantity_name: concentration at 1 h
Remember to quote the unit after the number.

// field: concentration at 1 h; key: CN1CC[C@]23c4c5ccc(O)c4O[C@H]2C(=O)CC[C@@]3(O)[C@H]1C5 [Oxymorphone HCl, oxymorphone hydrochloride] ; value = 1.07 ng/mL

---

- measurement_description: Oral gavage pharmacokinetics in rats, plasma oxymorphone by LC-MS/MS
- condition_info: male, Sprague Dawley, rat, plasma, oral, 3.54 mg/kg, Plasma oxymorphone, Mean, 3.54 mg/kg Oxymorphone HCl oral, 0.25 h
Structures can show the parent of a compound that is named as a salt.
quantity_name: concentration at 0.25 h
Remember to quote the unit after the number.

// field: concentration at 0.25 h; key: CN1CC[C@]23c4c5ccc(O)c4O[C@H]2C(=O)CC[C@@]3(O)[C@H]1C5 [Oxymorphone HCl, oxymorphone hydrochloride] ; value = 3.32 ng/mL

---

- measurement_description: Oral gavage pharmacokinetics in rats, plasma oxymorphone by LC-MS/MS
- condition_info: male, Sprague Dawley, rat, plasma, po, 1.77 mg/kg, Cmax of plasma oxymorphone, Mean, 1.77 mg/kg Oxymorphone HCl oral
Counter-ions that a name gives are not always drawn.
quantity_name: Cmax (ng/mL)
One number for each entry, in ng/mL.

// field: Cmax; key: CN1CC[C@]23c4c5ccc(O)c4O[C@H]2C(=O)CC[C@@]3(O)[C@H]1C5 [Oxymorphone HCl, oxymorphone hydrochloride] ; value = 1.23

---

- measurement_description: Oral gavage pharmacokinetics in rats, plasma oxymorphone by LC-MS/MS
- condition_info: male, Sprague Dawley, rat, plasma, oral, 3.54 mg/kg, Plasma oxymorphone, individual rats, 3.54 mg/kg Oxymorphone HCl oral, 4 h
Structures can show the parent of a compound that is named as a salt.
quantity_name: concentration at 4 h (ng/mL)
Answers are plain numbers, in ng/mL.

// field: concentration at 4 h; key: CN1CC[C@]23c4c5ccc(O)c4O[C@H]2C(=O)CC[C@@]3(O)[C@H]1C5 [Oxymorphone HCl, oxymorphone hydrochloride] ; value = 0.335

---

- measurement_description: Oral gavage pharmacokinetics in rats, plasma oxycodone by LC-MS/MS
- condition_info: 0.89 mg/kg oral, rat, 6 h
Where a name gives a salt, the structure may show the parent alone.
quantity_name: Plasma Concentration (oxycodone) by Subject

Some compounds with recorded Plasma Concentration (oxycodone) by Subject:
[[record]]
compound = "COc1ccc2c3c1O[C@H]1C(OC(=O)[C@H](O)c4ccccc4)=CC[C@@]4(O)[C@@H](C2)N(C)CC[C@]314 [Oxycodone Mandelate, trifluoroacetic acid salt]"
reading = "BLQ"

[[record]]
compound = "COc1ccc2c3c1O[C@H]1C(OC(=O)C[C@H](OC(=O)C[C@H](O)C(=O)O)C(=O)O)=CC[C@@]4(O)[C@@H](C2)N(C)CC[C@]314 [Oxycodone Dimalate, trifluoroacetic acid salt]"
reading = "BLQ"

[[record]]
compound = "COc1ccc2c3c1O[C@H]1C(=O)CC[C@@]4(O)[C@@H](C2)N(C)CC[C@]314.Cl [Oxycodone HCl, oxycodone HCl]"
reading = "BLQ"

[[record]]
compound = "COc1ccc2c3c1O[C@H]1C(OC(=O)C[C@H](O)C(=O)O)=CC[C@@]4(O)[C@@H](C2)N(C)CC[C@]314.Cl [Oxycodone Malate]"
reading = "BLQ"


Now consider a different compound.
// field: Plasma Concentration (oxycodone) by Subject; key: COc1ccc2c3c1O[C@H]1C(OC(=O)[C@H](C)O)=CC[C@@]4(O)[C@@H](C2)N(C)CC[C@]314 [Oxycodone Lactate, trifluoroacetic acid salt] ; value = BLQ

---

- measurement_description: Oral gavage pharmacokinetics in rats, plasma oxymorphone by LC-MS/MS
- condition_info: male, Sprague Dawley, rat, plasma, oral, 3.54 mg/kg, Plasma oxymorphone, Mean, 3.54 mg/kg Oxymorphone HCl oral, 0.5 h
Where a name gives a salt, the structure may show the parent alone.
quantity_name: concentration at 0.5 h

// field: concentration at 0.5 h; key: CN1CC[C@]23c4c5ccc(O)c4O[C@H]2C(=O)CC[C@@]3(O)[C@H]1C5 [Oxymorphone HCl, oxymorphone hydrochloride] ; value = 3.09 ng/mL

---

- measurement_description: Oral gavage pharmacokinetics in rats, plasma oxymorphone by LC-MS/MS
- condition_info: male, Sprague Dawley, rat, plasma, oral, 3.54 mg/kg, Plasma oxymorphone, Mean, 3.54 mg/kg Oxymorphone HCl oral, 2 h
Structures can show the parent of a compound that is named as a salt.
quantity_name: concentration at 2 h (ng/mL)
Give bare numbers, in ng/mL.

// field: concentration at 2 h; key: CN1CC[C@]23c4c5ccc(O)c4O[C@H]2C(=O)CC[C@@]3(O)[C@H]1C5 [Oxymorphone HCl, oxymorphone hydrochloride] ; value = 1.78

Hey, just so you know, these numbers are from patent US10695342B2.
